The reported measurements were obtained from patent US20240101576A1.

# measurement-target: EGFR exon 20 SVD Ins D770_N771 (Ba/F3 cells) (Homo sapiens, UniProt P00533, INS770SVD)
# Construct: expressed in transfected cells; host or cells: Ba/F3 (murine pro-B cells), retroviral transduction, puromycin selection, IL3-independent pool
# Sequence (P00533 with tags, fused parts or gaps INS770SVD): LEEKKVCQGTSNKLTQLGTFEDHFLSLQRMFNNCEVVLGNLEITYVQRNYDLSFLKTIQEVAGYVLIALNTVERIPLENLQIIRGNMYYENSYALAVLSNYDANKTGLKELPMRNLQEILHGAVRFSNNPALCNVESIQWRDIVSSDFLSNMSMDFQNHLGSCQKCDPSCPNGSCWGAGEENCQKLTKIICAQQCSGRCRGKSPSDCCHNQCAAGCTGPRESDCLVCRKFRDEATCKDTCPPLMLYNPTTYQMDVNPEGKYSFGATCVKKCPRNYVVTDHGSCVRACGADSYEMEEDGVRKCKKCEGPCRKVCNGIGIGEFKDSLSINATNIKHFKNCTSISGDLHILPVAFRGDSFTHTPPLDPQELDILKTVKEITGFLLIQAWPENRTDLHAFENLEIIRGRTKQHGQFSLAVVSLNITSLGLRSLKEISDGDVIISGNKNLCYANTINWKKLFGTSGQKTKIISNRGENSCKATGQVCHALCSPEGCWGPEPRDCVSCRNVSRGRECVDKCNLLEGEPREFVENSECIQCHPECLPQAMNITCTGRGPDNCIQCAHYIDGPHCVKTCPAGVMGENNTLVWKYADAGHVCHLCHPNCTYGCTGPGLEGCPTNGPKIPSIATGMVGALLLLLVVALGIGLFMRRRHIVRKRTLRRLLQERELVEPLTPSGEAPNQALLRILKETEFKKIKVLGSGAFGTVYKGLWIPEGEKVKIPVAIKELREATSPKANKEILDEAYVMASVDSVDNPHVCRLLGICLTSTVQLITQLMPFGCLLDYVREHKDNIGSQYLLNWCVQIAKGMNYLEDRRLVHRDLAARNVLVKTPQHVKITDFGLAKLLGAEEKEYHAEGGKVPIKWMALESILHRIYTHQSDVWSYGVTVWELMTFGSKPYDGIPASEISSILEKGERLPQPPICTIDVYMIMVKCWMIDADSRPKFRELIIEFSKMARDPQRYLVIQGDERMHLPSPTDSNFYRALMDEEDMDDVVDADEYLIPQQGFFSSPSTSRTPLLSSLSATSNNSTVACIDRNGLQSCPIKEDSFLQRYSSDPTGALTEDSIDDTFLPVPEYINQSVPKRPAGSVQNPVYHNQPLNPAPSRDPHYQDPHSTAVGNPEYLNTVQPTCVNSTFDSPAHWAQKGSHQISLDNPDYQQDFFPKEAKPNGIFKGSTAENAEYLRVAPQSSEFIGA
# assay-comment: Inhibitor activity on EGFR-dependent cell growth (CellTiter-Glo, 72 h), Ba/F3 EGFR exon 20 SVD Ins
# Type: cell-based
# condition-label: read-out: BaF3 SVD IC50
measured-parameter: IC50

INSERT INTO results (compound, measured_parameter, endpoint_value) VALUES
  ('COc1c(Cl)cccc1Nc1c(-c2ccnc(Nc3ccn(C)n3)n2)[nH]c2c1C(=O)NCC2 [compound 509]', 'IC50', '< 100 nM');

INPUT: Entry COc1c(Cl)cccc1Nc1c(-c2ccncc2F)[nH]c2c1C(=O)NC[C@@H]2CC(=O)N(C)C [Compound 488] has what IC50?
OUTPUT: < 100 nM

INPUT: Entry COc1c(F)cccc1Nc1c(-c2ccncc2F)[nH]c2c1C(=O)NC[C@H]2C[C@@H]1CCO1 [Compound 422a] has what IC50?
OUTPUT: < 100 nM

INPUT: Entry COc1c(Cl)cccc1Nc1c(-c2ccnc(N)c2F)[nH]c2c1C(=O)NCC2 [Compound 686, trifluoroacetic acid] has what IC50?
OUTPUT: < 100 nM

INPUT: Entry COCC[C@H]1CNC(=O)c2c1[nH]c(-c1ccncc1F)c2Nc1cccc(F)c1C [compound 824] has what IC50?
OUTPUT: 100 to 1000 nM

INPUT: Entry COc1c(Cl)cccc1Nc1c(-c2ccnc3[nH]ccc23)[nH]c2c1C(=O)NCC2 [compound 218] has what IC50?
OUTPUT: 100 to 1000 nM

INPUT: Entry COc1c(F)cc(F)cc1Nc1c(-c2ccnc(N)n2)[nH]c2c1C(=O)NCC2 [compound 304] has what IC50?
OUTPUT: 100 to 1000 nM

INPUT: Entry COc1c(Cl)cccc1Nc1c(-c2ccncc2F)[nH]c2c1C(=O)NCC21CN(CC(F)F)C1 [Compound 519] has what IC50?
OUTPUT: 100 to 1000 nM
